- Test system: Klebsiella pneumoniae
- procedure_text: Antibacterial activity against Klebsiella pneumoniae
- Type: functional
Answer each item with its documented log10 of MIC90.
All values: log10 MIC90 [µg/mL].

1. CCOC(=O)c1c(-c2ccc(OC)cc2)oc2ccc(OCCCN3C(=O)/C(=N\OC)c4ccccc43)cc12    0.00
2. CCOC(=O)c1c(-c2ccc(OC)cc2)oc2ccc(OCCCCCCN3C(=O)/C(=N\OC)c4ccccc43)cc12    0.60

Could you tell me log10 of MIC90 for each of these compounds? They are listed below.
1. CCOC(=O)c1c(-c2ccc(OC)cc2)oc2ccc(OCCCCCCN3C(=O)C(=O)c4ccccc43)cc12
2. CCO/N=C1\C(=O)N(CCCOc2ccc3oc(-c4ccc(OC)cc4)c(C(=O)OCC)c3c2)c2ccccc21

**Result**
-0.30
0.00

====

- Test system: Enterobacter cloacae
- procedure_text: Antibacterial activity against Enterobacter cloacae
- Type: functional
quantity_name: MIC90 (µg/mL)
One number for each entry, in µg/mL.

Completed entries (count: 3):
1) CCOC(=O)c1c(-c2ccc(OC)cc2)oc2ccc(OCCCN3C(=O)/C(=N\OC)c4ccccc43)cc12    0.5
2) CCOC(=O)c1c(-c2ccc(OC)cc2)oc2ccc(OCCCCN3C(=O)/C(=N\OC)c4ccccc43)cc12    0.25
3) CCOC(=O)c1c(-c2ccccc2)oc2ccc(OCCCN3C(=O)/C(=N\OC)c4cc(OC)ccc43)cc12    0.5

# ---- query compound ----
**Query** Answer with MIC90 of "CCOC(=O)c1c(-c2ccc(OC)cc2)oc2ccc(OCCCCCCN3C(=O)C(=O)c4ccccc43)cc12" measured for Enterobacter cloacae.
**Result** 0.125

====

Answer each item with its documented CC50 at 72 h.
- procedure_text: Cytotoxicity against African green monkey Vero cells assessed as reduction in cell viability after 72 hrs by MTT assay
- Format: cell-based
- test_parameters: chlorocebus sabaeus, Vero cells
One number for each entry, in µg/mL.

Completed entries (count: 3):
1. CCOC(=O)c1c(-c2ccc(OC)cc2)oc2ccc(OCCCCCCN3C(=O)/C(=N\OC)c4cc(F)ccc43)cc12    16
2. CCOC(=O)c1c(-c2ccc(OC)cc2)oc2ccc(OCCCCCCN3C(=O)/C(=N\NC(N)=S)c4ccccc43)cc12    8
3. CCO/N=C1\C(=O)N(CCCCOc2ccc3oc(-c4ccc(OC)cc4)c(C(=O)OCC)c3c2)c2ccccc21    64

# ---- query compound ----
**Query** State its CC50 at 72 h: "CCOC(=O)c1c(-c2ccc(OC)cc2)oc2ccc(OCCCCCN3C(=O)/C(=N\OC)c4cc(F)ccc43)cc12"
**Result** 32

====

- Test system: Acinetobacter calcoaceticus
- procedure_text: Antibacterial activity against Acinetobacter calcoaceticus
- Type: functional
quantity_name: MIC90 (µg/mL)
One number for each entry, in µg/mL.

Completed entries (count: 6):
1. CCOC(=O)c1c(-c2ccc(OC)cc2)oc2ccc(OCCCCCN3C(=O)/C(=N\OC)c4ccccc43)cc12    1
2. CCOC(=O)c1c(-c2ccc(OC)cc2)oc2ccc(OCCCCCN3C(=O)/C(=N\O)c4ccccc43)cc12    2
3. CCOC(=O)c1c(-c2ccccc2)oc2ccc(OCCCN3C(=O)/C(=N\OC)c4cc(OC)ccc43)cc12    2
4. CCOC(=O)c1c(-c2ccc(OC)cc2)oc2ccc(OCCCCN3C(=O)/C(=N\OC)c4cc(F)ccc43)cc12    4
5. CCOC(=O)c1c(-c2ccc(OC)cc2)oc2ccc(OCCCN3C(=O)/C(=N\OC)c4cc(OC)ccc43)cc12    4
6. O=C(O)c1cn(C2CC2)c2cc(N3CCNCC3)c(F)cc2c1=O [CIPROFLOXACIN]    0.5

Could you tell me MIC90 for each of these molecules? They are listed below.
1. CCOC(=O)c1c(-c2ccc(OC)cc2)oc2ccc(OCCCCN3C(=O)/C(=N\OC)c4ccccc43)cc12
2. CCO/N=C1\C(=O)N(CCCOc2ccc3oc(-c4ccc(OC)cc4)c(C(=O)OCC)c3c2)c2ccccc21
3. CCOC(=O)c1c(-c2ccccc2)oc2ccc(OCCCCN3C(=O)/C(=N\OC)c4cc(F)ccc43)cc12
4. CCOC(=O)c1c(-c2ccc(OC)cc2)oc2ccc(OCCCCCCN3C(=O)/C(=N\NC(N)=S)c4ccccc43)cc12

**Result**
1: 1; 2: 2; 3: 1; 4: 4

Could you tell me MIC90 for each of these molecules? They are listed below.
1. CCOC(=O)c1c(-c2ccc(F)cc2)oc2ccc(OCCCCCCN3C(=O)C(=O)c4cc(F)ccc43)cc12
2. CCOC(=O)c1c(-c2ccc(OC)cc2)oc2ccc(OCCCCCCN3C(=O)/C(=N\OC)c4cc(F)ccc43)cc12
3. CCOC(=O)c1c(-c2ccc(OC)cc2)oc2ccc(OCCCN3C(=O)/C(=N\OC)c4ccccc43)cc12
4. CCOC(=O)c1c(-c2ccc(OC)cc2)oc2ccc(OCCCCCCN3C(=O)/C(=N\OC)c4ccccc43)cc12
5. CCO/N=C1\C(=O)N(CCCCOc2ccc3oc(-c4ccc(OC)cc4)c(C(=O)OCC)c3c2)c2ccc(F)cc21
6. CCO/N=C1\C(=O)N(CCCCCCOc2ccc3oc(-c4ccc(OC)cc4)c(C(=O)OCC)c3c2)c2ccccc21
7. CCOC(=O)c1c(-c2ccccc2)oc2ccc(OCCCN3C(=O)/C(=N\OC)c4ccccc43)cc12

**Result**
1: 4; 2: 4; 3: 1; 4: 4; 5: 8; 6: 2; 7: 1

Could you tell me MIC90 for each of these molecules? They are listed below.
1. CCO/N=C1\C(=O)N(CCCCCOc2ccc3oc(-c4ccc(OC)cc4)c(C(=O)OCC)c3c2)c2ccc(F)cc21
2. CCOC(=O)c1c(-c2ccc(OC)cc2)oc2ccc(OCCCCCN3C(=O)C(=O)c4cc(F)ccc43)cc12

**Result**
8
8

====

Answer each item with its documented MIC90.
- Tested on: Acinetobacter calcoaceticus
- procedure_text: Antibacterial activity against Acinetobacter calcoaceticus
- Type: functional
Answers are plain numbers, in µg/mL.

Completed entries (count: 2):
1. CCO/N=C1\C(=O)N(CCCCOc2ccc3oc(-c4ccc(OC)cc4)c(C(=O)OCC)c3c2)c2ccccc21    0.5
2. CCOC(=O)c1c(-c2ccc(OC)cc2)oc2ccc(OCCCCCN3C(=O)/C(=N\OC)c4cc(F)ccc43)cc12    1

Could you tell me MIC90 for each of these compounds? They are listed below.
1. CCOC(=O)c1c(-c2ccc(OC)cc2)oc2ccc(OCCCCCCN3C(=O)/C(=N\NC(N)=S)c4cc(F)ccc43)cc12
2. CCOC(=O)c1c(-c2ccc(F)cc2)oc2ccc(OCCCCCCN3C(=O)/C(=N\OC)c4cc(F)ccc43)cc12
3. CCOC(=O)c1c(-c2ccc(OC)cc2)oc2ccc(OCCCCCCN3C(=O)C(=O)c4cc(F)ccc43)cc12

**Result**
[16, 4, 4]

====

Answer each item with its documented Tmax.
- procedure_text: Tmax in ICR mouse at 25 mg/kg, po
- Assay type: ADME, organism-based
- test_parameters: in vivo
Numbers only, in h.

Completed entries (count: 2):
1. CCOC(=O)c1c(-c2ccc(OC)cc2)oc2ccc(OCCCCN3C(=O)/C(=N\OC)c4ccccc43)cc12    1.65
2. O=C(O)c1cn(C2CC2)c2cc(N3CCNCC3)c(F)cc2c1=O [CIPROFLOXACIN]    1.8

# ---- query molecule ----
**Query** State its Tmax: "CNC(=O)c1c(-c2ccc(O)cc2)oc2ccc(O)c(CN3CCCCC3)c12"
**Result** 3.46

====

- procedure_text: Cytotoxicity against African green monkey Vero cells assessed as reduction in cell viability after 72 hrs by MTT assay
- Assay type: cell-based
- test_parameters: chlorocebus sabaeus, Vero cells
quantity_name: CC50 at 72 h (µg/mL)
Give bare numbers, in µg/mL.

Completed entries (count: 6):
1) CCO/N=C1\C(=O)N(CCCCCOc2ccc3oc(-c4ccc(OC)cc4)c(C(=O)OCC)c3c2)c2ccc(OC)cc21    16
2) CCOC(=O)c1c(-c2ccc(OC)cc2)oc2ccc(OCCCCCCN3C(=O)/C(=N\OC)c4ccccc43)cc12    32
3) CCOC(=O)c1c(-c2ccc(OC)cc2)oc2ccc(OCCCCN3C(=O)/C(=N\OC)c4cc(F)ccc43)cc12    32
4) CCOC(=O)c1c(-c2ccc(OC)cc2)oc2ccc(OCCCCCCN3C(=O)C(=O)c4cc(F)ccc43)cc12    1020
5) CCOC(=O)c1c(-c2ccc(OC)cc2)oc2ccc(OCCCCCN3C(=O)C(=O)c4cc(F)ccc43)cc12    512
6) NNC(=O)c1ccncc1 [ISONIAZID]    256

Could you tell me CC50 at 72 h for each of these molecules? They are listed below.
1. CCOC(=O)c1c(-c2ccc(OC)cc2)oc2ccc(OCCCN3C(=O)/C(=N\OC)c4cc(OC)ccc43)cc12
2. CCOC(=O)c1c(-c2ccc(OC)cc2)oc2ccc(OCCCCN3C(=O)/C(=N\OC)c4ccccc43)cc12
3. CCO/N=C1\C(=O)N(CCCOc2ccc3oc(-c4ccc(OC)cc4)c(C(=O)OCC)c3c2)c2ccccc21
4. CCOC(=O)c1c(-c2ccccc2)oc2ccc(OCCCN3C(=O)/C(=N\OC)c4ccccc43)cc12
5. CCOC(=O)c1c(-c2ccc(F)cc2)oc2ccc(OCCCCCCN3C(=O)/C(=N\OC)c4cc(F)ccc43)cc12
6. CCO/N=C1\C(=O)N(CCCCCCOc2ccc3oc(-c4ccc(OC)cc4)c(C(=O)OCC)c3c2)c2ccccc21
7. CCOC(=O)c1c(-c2ccc(OC)cc2)oc2ccc(OCCCCCCN3C(=O)C(=O)c4ccccc43)cc12

**Result**
128
32
16
64
16
16
256

Could you tell me CC50 at 72 h for each of these molecules? They are listed below.
1. CCOC(=O)c1c(-c2ccc(F)cc2)oc2ccc(OCCCCCCN3C(=O)C(=O)c4cc(F)ccc43)cc12
2. CCOC(=O)c1c(-c2ccc(OC)cc2)oc2ccc(OCCCCCN3C(=O)/C(=N\O)c4ccccc43)cc12
3. CCOC(=O)c1c(-c2ccccc2)oc2ccc(OCCCN3C(=O)/C(=N\OC)c4cc(OC)ccc43)cc12
4. CCOC(=O)c1c(-c2ccc(OC)cc2)oc2ccc(OCCCCCN3C(=O)/C(=N\OC)c4ccccc43)cc12

**Result**
1. 512
2. 64
3. 64
4. 32

**Query** State its CC50 at 72 h: "CCOC(=O)c1c(-c2ccc(OC)cc2)oc2ccc(OCCCCCCN3C(=O)/C(=N\NC(N)=S)c4cc(F)ccc43)cc12"
**Result** 8
